Items are presented alongside their recorded Stability in liver microsome (residual ratio %).
procedure.details: Metabolic stability test in human liver microsome
Type: in vitro ADME
condition.description: 10 min, 5 μM, 37° C.
measured.endpoint: Stability in liver microsome (residual ratio %)

1. CC(C)(O)CCOc1cc(-c2cnn(C(C)(C)C(N)=O)c2)c2c(c1)[C@@](O)(C(F)(F)F)c1ccccc1-2 98.8
2. Cn1cc(-c2cc(OCC(C)(C)O)cc3c2-c2ccccc2[C@]3(O)C(F)(F)F)cn1 98.0
3. CC(C)(O)CCCOc1cc(-c2cnn(C(C)(C)C(N)=O)c2)c2c(c1)[C@@](O)(C(F)(F)F)c1ccccc1-2 98.4
4. NC(=O)Cn1cc(-c2cc(OCCC34CC5CC(CC(O)(C5)C3)C4)cc3c2-c2ccccc2[C@]3(O)C(F)(F)F)cn1 34.8
